Assay: Pharmacokinetics of insufflated ImaT powder in rat: lung sections
Assay type: in vivo, Sprague Dawley rats
Conditions: male, Sprague Dawley, rat, lung, section 2 (homogenate), inhaled, 4 mg/kg; read-out: Lung conc, Section 2
Experimental: Lungs were also harvested at specified time points (see Table 4). […] Lungs werethen harvested. The left lobe was sectioned into three parts; upper, middle and bottom. Each section was separated into two equal pieces. Each piece was weighed and individually placed in a properly labeled tube. Lungs samples were snap-frozen and stored at −80° C. Lung samples were then homogenized in PBS, 0.1% Triton X-100 (200 mg of tissue/mL). The homogenate samples were stored at −80° C.
metric: concentration at 4 h
Hi, when you answer, please include the unit after the number. Thanks!

Qu. # concentration at 4 h lookup, item Cc1ccc(NC(=O)c2ccc(CN3CCN(C)CC3)cc2)cc1Nc1nccc(-c2cccnc2)n1
Ans. 51 ng/mL

* * *

Assay: Pharmacokinetics of insufflated ImaT powder in rat: lung sections
Assay type: in vivo, Sprague Dawley rats
Conditions: male, Sprague Dawley, rat, lung, section 2 (homogenate), inhaled, 4 mg/kg; read-out: Lung conc, Section 2
metric: concentration at 1 h

Qu. # concentration at 1 h lookup, item Cc1ccc(NC(=O)c2ccc(CN3CCN(C)CC3)cc2)cc1Nc1nccc(-c2cccnc2)n1
Ans. 638 ng/mL

* * *

Assay: Pharmacokinetics of insufflated ImaT powder in rat: lung sections
Assay type: in vivo, Sprague Dawley rats
Conditions: male, Sprague Dawley, rat, lung, section 4 (homogenate), inhaled, 4 mg/kg; read-out: Lung conc, Section 4
metric: concentration at 1 h (ng/mL)
Could you give me the number in ng/mL? Just the number is fine.

Qu. # concentration at 1 h lookup, item Cc1ccc(NC(=O)c2ccc(CN3CCN(C)CC3)cc2)cc1Nc1nccc(-c2cccnc2)n1
Ans. 510

* * *

Assay: Pharmacokinetics of insufflated ImaT powder in rat: lung sections
Type: in vivo, Sprague Dawley rats
Conditions: male, Sprague Dawley, rat, lung, section 4 (homogenate), inhaled, 4 mg/kg; read-out: Lung conc, Section 4
metric: concentration at 8 h (ng/mL)
Could you give me the number in ng/mL? Just the number is fine.

Qu. # concentration at 8 h lookup, item Cc1ccc(NC(=O)c2ccc(CN3CCN(C)CC3)cc2)cc1Nc1nccc(-c2cccnc2)n1
Ans. 24.6

* * *

Assay: Pharmacokinetics of insufflated ImaT powder in rat: lung sections
Format: in vivo, Sprague Dawley rats
Settings: male, Sprague Dawley, rat, lung, section 4 (homogenate), inhaled, 4 mg/kg; read-out: Lung conc, Section 4
Description: Lungs were also harvested at specified time points (see Table 4). […] Lungs werethen harvested. The left lobe was sectioned into three parts; upper, middle and bottom. Each section was separated into two equal pieces. Each piece was weighed and individually placed in a properly labeled tube. Lungs samples were snap-frozen and stored at −80° C. Lung samples were then homogenized in PBS, 0.1% Triton X-100 (200 mg of tissue/mL). The homogenate samples were stored at −80° C.
metric: concentration at 0.08 h (ng/mL)
Could you give me the number in ng/mL? Just the number is fine.

Qu. # concentration at 0.08 h lookup, item Cc1ccc(NC(=O)c2ccc(CN3CCN(C)CC3)cc2)cc1Nc1nccc(-c2cccnc2)n1
Ans. 3000

* * *

Experiment: Pharmacokinetics of insufflated ImaT powder in rat: lung sections
Assay type: in vivo, Sprague Dawley rats
Conditions: male, Sprague Dawley, rat, lung, section 1 (homogenate), inhaled, 4 mg/kg; read-out: Lung conc, Section 1
metric: concentration at 0.08 h (ng/mL)
Could you give me the number in ng/mL? Just the number is fine.

Qu. # concentration at 0.08 h lookup, item Cc1ccc(NC(=O)c2ccc(CN3CCN(C)CC3)cc2)cc1Nc1nccc(-c2cccnc2)n1 [Imatinib]
Ans. 201
